Molecular target: Neu5Ac(a2-3)Gal(b1-4)GlcNAc(b1-2)Man(a1-3)[GlcNAc(b1-4)][Neu5Ac(a2-3)Gal(b1-4)GlcNAc(b1-2)Man(a1-6)]Man(b1-4)GlcNAc(b1-4)GlcNAc
Assay: glycan array binding signal (z-score within array); higher = stronger binding
Details: glycan notation: IUPAC condensed, linker removed
Shown is part of a subset that was picked to be rich in the strongest signals.
Give measured glycan array binding signal (z-score) for each item. Keep answers brief.

Req: // fetch glycan array binding signal (z-score) given entry rCNL (Clitocybe nebularis), B2ZRS9 (protein) SITPGTYNITNVAYTNRLIDLTGSNPAENTLIIGHHLNKTPSGYGNQQWTLVQLPHTTIYTMQAVNPQSYVRVRDDNLVDGAALVGSQQPTPVSIESAGNSGQFRIKIPNLGLALTLPSDANSTPIVLGEVDETSTNQLWAFESVSAV
Resp: -0.226

Req: // fetch glycan array binding signal (z-score) given entry UDA (Urtica dioica), P11218 (protein) MMMRFLSAVVIMSSAMAVGLVSAQRCGSQGGGGTCPALWCCSIWGWCGDSEPYCGRTCENKCWSGERSDHRCGAAVGNPPCGQDRCCSVHGWCGGGNDYCSGSKCQYRCSSSVRGPRVALSGNSTANSIGNVVVTEPLFDQMFSHRKDCPSQGFYSYHSFLVAAESFPAFGTIGDVATRKREVAAFLAHISQATSGERSDVENPHAWGLCHINTTTVTENDFCTSSDWPCAAGKKYSPRGPIQLTHNFNYGLAGQAIGEDLIQNPDLVEKDPIISFKTALWFWMSQHDNKPSCHDIVLNANSAANRIPNKGVIGNIISRAFGHDDFAVRSSSIGFYKRYCDMLGVSYGHDLKYWFDNTPSSEFQRIQMRVAA
Resp: -0.174

Req: // fetch glycan array binding signal (z-score) given entry cFel (Cyprinus carpio), P68512 (protein) LDCTVIDGNLKQIDAGSGSVVGVNNLNETFVLIDNVFTKISGSLKHFSVGPAGQLGVNTANNIFKYQSGGFVQLAGLLKQVDAGGDQIIAGVNMYDDIYCLNMDANNKWPSSNTPWVQINGKLKYYSCGPYSCWGVNSNDQIFIMKDVSSNVCSGSGSFINIPGLLSMIEVATDGSVFGVNSQGNLYQRTGVTRSKPDGTDWISMVACPNGHKHVSFDLGVLWLVCVDGSIRKCILTD
Resp: 3.12

Req: // fetch glycan array binding signal (z-score) given entry LSECtin (Homo sapiens), Q6UXB4 (protein) MDTTRYSKWGGSSEEVPGGPWGRWVHWSRRPLFLALAVLVTTVLWAVILSILLSKASTERAALLDGHDLLRTNASKQTAALGALKEEVGDCHSCCSGTQAQLQTTRAELGEAQAKLMEQESALRELRERVTQGLAEAGRGREDVRTELFRALEAVRLQNNSCEPCPTSWLSFEGSCYFFSVPKTTWAAAQDHCADASAHLVIVGGLDEQGFLTRNTRGRGYWLGLRAVRHLGKVQGYQWVDGVSLSFSHWNQGEPNDAWGRENCVMMLHTGLWNDAPCDSEKDGWICEKRHNC
Resp: -0.14

Req: // fetch glycan array binding signal (z-score) given entry DrGal9 (Danio rerio) (protein) MAFYQQPPYYNPRIPFSGPIQGGLQDGKSIIISGRVLPGANRFHVNLQCGSHSEANVALHFNPRYEDTDYVVNNSYLNRTWGSEERKYESPFAQGQTFTLQILVAQDKYKISTNGRHFMDYKHRIPFTQVDTVAVEGMVEVNSVAFQNPAGFIPPQAGYAPQYAVPPGCGFPAFPSAPNYTIPHKTVMNGGLHPGKNIVINGVVNPNAKSIIFNLCYRSGIAFHYNPRFDENVVVRNTNQMEKWGAEERFGGLPFHKGQPFQVTISCNPQHYNVFVNGKQEHTYKHRYTKLNDIDILEICGDLQLTSVQA
Resp: 0.144
